# ASSAYED SYSTEM: YopH (Yersinia pestis)
# ASSAY EXPLANATION: biochemical
# Type: biochemical
# SETUP CONDITIONS: Ki(c)
READOUT TYPE: Ki
Give the value; after it, write the unit.

// known answers, use as guide
smiles_entry=O=C1NC(=S)S/C1=C/c1ccc(-c2ccc(C(=O)O)cc2)o1 readout_type=Ki observed_value="19.7 µM"
smiles_entry=O=C1NC(=O)C(=Cc2ccc(-c3ccc(O)c(C(=O)O)c3)o2)C(=O)N1 readout_type=Ki observed_value="4.13 µM"

From here, focus on the item given below.
[ask] What measured Ki is associated with O=C(O)c1cc(-c2ccc(/C=N/n3cnnc3)o2)ccc1O on YopH (Yersinia pestis)?
[reply] 3.73 µM

====

# ASSAYED SYSTEM: HePTP (Homo sapiens, UniProt P35236)
# Sequence (P35236 whole entry): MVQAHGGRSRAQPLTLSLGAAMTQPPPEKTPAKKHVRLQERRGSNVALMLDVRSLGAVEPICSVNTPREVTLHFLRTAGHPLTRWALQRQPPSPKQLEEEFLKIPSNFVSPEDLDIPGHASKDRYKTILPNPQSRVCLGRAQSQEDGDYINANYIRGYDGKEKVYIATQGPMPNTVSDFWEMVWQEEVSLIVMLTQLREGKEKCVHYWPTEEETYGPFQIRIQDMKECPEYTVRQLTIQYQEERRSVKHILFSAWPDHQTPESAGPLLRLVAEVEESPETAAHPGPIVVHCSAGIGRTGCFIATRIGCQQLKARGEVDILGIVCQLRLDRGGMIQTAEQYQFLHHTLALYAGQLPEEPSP
The compounds listed here are annotated with their pIC50.
Scale: negative log10 of molar concentration, which is what pIC50 denotes.

compound="CSCCC(C(=O)O)N1C(=O)/C(=C\\c2ccc(-c3ccc([N+](=O)[O-])cc3)o2)SC1=S (centres unmarked) [Compound 5850330]" readout_type=pIC50 observed_value=4.02
compound="Cc1cc2nc3s/c(=C\\c4ccc(-c5ccc(O)c(C(=O)O)c5)o4)c(=O)n3c2cc1C [Compound 5670901]" readout_type=pIC50 observed_value=4.49
compound="O=C1NC(=S)NC(=O)C1=Cc1ccc(-c2ccc(C(=O)O)c(O)c2)o1 [Compound 5557271]" readout_type=pIC50 observed_value=4.49
compound="O=C1NC(=O)/C(=C/c2ccc(-c3ccc(O)c(C(=O)O)c3)o2)S1 [Compound 5842540]" readout_type=pIC50 observed_value=4.46

[ask] What measured pIC50 is associated with O=C(Cn1nnc(-c2ccccc2)n1)N/N=C/c1ccc(-c2ccc(O)c(C(=O)O)c2)o1 [Compound 5680029] on HePTP (Homo sapiens, UniProt P35236)?
[reply] 4.32

====

# ASSAYED SYSTEM: CD45 (Homo sapiens)
# Sequence (P08575 26-1306): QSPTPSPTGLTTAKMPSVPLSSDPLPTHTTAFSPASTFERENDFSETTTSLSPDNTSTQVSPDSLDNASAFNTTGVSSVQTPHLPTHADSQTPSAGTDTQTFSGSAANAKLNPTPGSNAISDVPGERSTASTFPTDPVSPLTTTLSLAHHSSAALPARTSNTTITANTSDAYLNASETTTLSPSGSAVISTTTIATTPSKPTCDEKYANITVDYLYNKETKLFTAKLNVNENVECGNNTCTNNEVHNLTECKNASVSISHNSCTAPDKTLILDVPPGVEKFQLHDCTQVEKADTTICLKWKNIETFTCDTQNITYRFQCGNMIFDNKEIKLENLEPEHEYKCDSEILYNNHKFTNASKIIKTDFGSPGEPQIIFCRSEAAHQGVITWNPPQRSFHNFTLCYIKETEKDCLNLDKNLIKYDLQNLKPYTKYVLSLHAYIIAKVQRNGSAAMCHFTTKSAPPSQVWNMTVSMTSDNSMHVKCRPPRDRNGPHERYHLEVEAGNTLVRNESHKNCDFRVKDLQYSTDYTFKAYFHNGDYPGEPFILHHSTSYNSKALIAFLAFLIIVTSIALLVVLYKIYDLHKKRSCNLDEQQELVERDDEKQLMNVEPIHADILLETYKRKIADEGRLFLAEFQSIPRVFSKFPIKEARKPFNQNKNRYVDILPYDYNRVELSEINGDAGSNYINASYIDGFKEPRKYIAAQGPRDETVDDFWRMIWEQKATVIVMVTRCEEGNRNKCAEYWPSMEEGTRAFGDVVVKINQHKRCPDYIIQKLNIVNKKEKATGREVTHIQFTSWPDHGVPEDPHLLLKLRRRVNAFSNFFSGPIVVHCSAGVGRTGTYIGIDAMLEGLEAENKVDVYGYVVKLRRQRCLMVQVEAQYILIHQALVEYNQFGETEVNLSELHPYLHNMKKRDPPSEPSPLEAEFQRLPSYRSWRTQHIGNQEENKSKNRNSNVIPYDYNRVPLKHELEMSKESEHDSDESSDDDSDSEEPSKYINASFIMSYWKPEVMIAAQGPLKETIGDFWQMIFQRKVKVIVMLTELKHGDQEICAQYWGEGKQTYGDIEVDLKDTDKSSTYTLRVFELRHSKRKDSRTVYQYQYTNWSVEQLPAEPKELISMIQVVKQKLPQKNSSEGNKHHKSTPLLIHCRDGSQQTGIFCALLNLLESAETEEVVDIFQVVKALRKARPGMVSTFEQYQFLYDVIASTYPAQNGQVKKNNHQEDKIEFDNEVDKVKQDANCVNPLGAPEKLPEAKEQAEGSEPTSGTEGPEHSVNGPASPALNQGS
pIC50: −log10 of the molar value.
pIC50 vs 5: at or above is MET, below is NOT MET.

compound=Cc1cc2nc3s/c(=C\c4ccc(-c5ccc(O)c(C(=O)O)c5)o4)c(=O)n3c2cc1C assayed_system="CD45 (Homo sapiens)" class_label=MET
compound="CSCCC(C(=O)O)N1C(=O)/C(=C\\c2ccc(-c3ccc([N+](=O)[O-])cc3)o2)SC1=S (centres unmarked)" assayed_system="CD45 (Homo sapiens)" class_label="NOT MET"
compound=O=C(Cn1nnc(-c2ccccc2)n1)N/N=C/c1ccc(-c2ccc(O)c(C(=O)O)c2)o1 assayed_system="CD45 (Homo sapiens)" class_label="NOT MET"
compound=O=C1NC(=S)NC(=O)C1=Cc1ccc(-c2ccc(C(=O)O)c(O)c2)o1 assayed_system="CD45 (Homo sapiens)" class_label=MET

[ask] Quick check, pIC50 >= 5? O=C1NC(=O)/C(=C/c2ccc(-c3ccc(O)c(C(=O)O)c3)o2)S1
[reply] MET

====

# ASSAYED SYSTEM: YopH (Yersinia pestis, UniProt O68720)
# Sequence (O68720 1-468): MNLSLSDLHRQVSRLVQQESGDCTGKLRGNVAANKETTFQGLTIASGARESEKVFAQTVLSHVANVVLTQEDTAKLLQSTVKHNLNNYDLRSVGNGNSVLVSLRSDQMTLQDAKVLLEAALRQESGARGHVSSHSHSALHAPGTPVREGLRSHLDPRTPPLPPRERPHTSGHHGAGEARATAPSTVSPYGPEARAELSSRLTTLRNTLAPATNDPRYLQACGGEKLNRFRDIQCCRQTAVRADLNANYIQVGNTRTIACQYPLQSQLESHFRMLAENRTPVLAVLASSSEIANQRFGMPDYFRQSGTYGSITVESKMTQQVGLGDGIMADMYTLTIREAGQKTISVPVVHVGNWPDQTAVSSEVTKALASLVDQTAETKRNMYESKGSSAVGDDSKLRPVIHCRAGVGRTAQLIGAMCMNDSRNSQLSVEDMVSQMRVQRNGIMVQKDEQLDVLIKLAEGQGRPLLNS
# ASSAY EXPLANATION: biochemical
# Format: biochemical
# SETUP CONDITIONS: Ki
The molecules listed here are annotated with their pKi.
Scale: negative log10 of molar concentration, which is what pKi denotes.

// known answers, use as guide
molecule=Cc1cc(C)c2nc3s/c(=C\c4ccc(-c5ccc(O)c(C(=O)O)c5)o4)c(=O)n3c2c1 observed_value=5.06
molecule=O=C1NC(=O)C(=Cc2ccc(-c3ccc(O)c(C(=O)O)c3)o2)C(=O)N1 observed_value=5.39
molecule=O=C1NC(=S)NC(=O)C1=Cc1ccc(-c2ccc(C(=O)O)c(O)c2)o1 observed_value=6.48
molecule=Cc1cc2nc3s/c(=C\c4ccc(-c5ccc(O)c(C(=O)O)c5)o4)c(=O)n3c2cc1C observed_value=6.04

From here, focus on the item given below.
[ask] Please look up its pKi: O=C(O)c1ccccc1O [salicylic acid, reference compound]
[reply] 3.05

====

# ASSAYED SYSTEM: YopH (Yersinia pestis, UniProt O68720)
# ASSAY EXPLANATION: biochemical
# Type: biochemical
# SETUP CONDITIONS: Ki(c)
READOUT TYPE: pKi
Scale: negative log10 of molar concentration, which is what pKi denotes.

// known answers, use as guide
compound=O=Cc1ccc(-c2ccc(C(=O)O)c(O)c2)o1 readout_type=pKi observed_value=5.10
compound="CSCCC(C(=O)O)N1C(=O)/C(=C\\c2ccc(-c3ccc([N+](=O)[O-])cc3)o2)SC1=S (centres unmarked)" readout_type=pKi observed_value=5.01
compound=O=C1NC(=S)S/C1=C\c1ccc(-c2cc([N+](=O)[O-])ccc2O)o1 readout_type=pKi observed_value=4.77
compound=O=C1NC(=S)NC(=O)C1=Cc1ccc(-c2ccc(C(=O)O)c(O)c2)o1 readout_type=pKi observed_value=6.48
compound=O=C(O)c1cc(-c2ccc(C=C3C(=O)c4ccccc4C3=O)o2)ccc1O readout_type=pKi observed_value=5.49

[ask] Please look up its pKi: O=C1NC(=S)S/C1=C\c1ccc(-c2cc(C(=O)O)ccc2Cl)o1
[reply] 4.79

[ask] Please look up its pKi: O=C1NC(=O)/C(=C/c2ccc(-c3ccc(O)c(C(=O)O)c3)o2)S1
[reply] 5.95

[ask] Please look up its pKi: O=C(Cn1nnc(-c2ccccc2)n1)N/N=C/c1ccc(-c2ccc(O)c(C(=O)O)c2)o1
[reply] 5.55

[ask] Please look up its pKi: COc1ccc(-c2ccc(/C=C3\SC(=S)NC3=O)o2)cc1[N+](=O)[O-]
[reply] 5.19

[ask] Please look up its pKi: Cc1cc(C(=O)O)ccc1-c1ccc(/C=C2\SC(=S)NC2=O)o1
[reply] 4.94

[ask] Please look up its pKi: CCN1C(=O)/C(=C\c2ccc(-c3ccc(O)cc3)o2)SC1=S
[reply] 4.41

====

# ASSAYED SYSTEM: YopH (Yersinia pestis)
# ASSAY EXPLANATION: biochemical
# Type: biochemical
# SETUP CONDITIONS: Ki(u)
READOUT TYPE: pKi
Scale: negative log10 of molar concentration, which is what pKi denotes.

smiles_entry=Cc1cc2nc3s/c(=C\c4ccc(-c5ccc(O)c(C(=O)O)c5)o4)c(=O)n3c2cc1C observed_value=5.08
smiles_entry=O=C(O)c1cccc(-c2ccc(/C=C3\SC(=S)N(Cc4ccccc4)C3=O)o2)c1 observed_value=4.37
smiles_entry=O=Cc1ccc(-c2ccc(C(=O)O)c(O)c2)o1 observed_value=4.21
smiles_entry=O=C(Cn1nnc(-c2ccccc2)n1)N/N=C/c1ccc(-c2ccc(O)c(C(=O)O)c2)o1 observed_value=5.05
smiles_entry=O=C1NC(=S)S/C1=C\c1ccc(-c2cc([N+](=O)[O-])ccc2O)o1 observed_value=4.78

[ask] Please look up its pKi: COc1ccc(-c2ccc(/C=C3\SC(=S)NC3=O)o2)cc1[N+](=O)[O-]
[reply] 5.01

[ask] Please look up its pKi: O=C1NC(=O)/C(=C\c2ccc(-c3cccc([N+](=O)[O-])c3)o2)S1
[reply] 4.30

[ask] Please look up its pKi: Cc1cc(C(=O)O)ccc1-c1ccc(/C=C2\SC(=S)NC2=O)o1
[reply] 4.07

[ask] Please look up its pKi: c1ccc(Nc2nc(-c3ccccc3)[n+](-c3ccccc3)s2)cc1
[reply] 5.59

[ask] Please look up its pKi: CCN1C(=O)/C(=C\c2ccc(-c3ccc(O)cc3)o2)SC1=S
[reply] 4.25

[ask] Please look up its pKi: O=C1NC(=O)/C(=C/c2ccc(-c3ccc(O)c(C(=O)O)c3)o2)S1
[reply] 4.85

====

pIC50 values recorded for PTP 1B (Homo sapiens, UniProt P18031)
Scale: negative log10 of molar concentration, which is what pIC50 denotes.

// known answers, use as guide
molecule=O=C1NC(=O)/C(=C/c2ccc(-c3ccc(O)c(C(=O)O)c3)o2)S1 observed_value=4.92
molecule=O=C(Cn1nnc(-c2ccccc2)n1)N/N=C/c1ccc(-c2ccc(O)c(C(=O)O)c2)o1 observed_value=4.84

[ask] What measured pIC50 is associated with O=C1NC(=S)NC(=O)C1=Cc1ccc(-c2ccc(C(=O)O)c(O)c2)o1 on PTP 1B (Homo sapiens, UniProt P18031)?
[reply] 5.01

[ask] What measured pIC50 is associated with CSCCC(C(=O)O)N1C(=O)/C(=C\c2ccc(-c3ccc([N+](=O)[O-])cc3)o2)SC1=S (centres unmarked) on PTP 1B (Homo sapiens, UniProt P18031)?
[reply] 4.41

[ask] What measured pIC50 is associated with Cc1cc2nc3s/c(=C\c4ccc(-c5ccc(O)c(C(=O)O)c5)o4)c(=O)n3c2cc1C on PTP 1B (Homo sapiens, UniProt P18031)?
[reply] 5.15
